Provide the reported log10(IC50) of each item.
Assay Target: recombinant human IDE42-1019 (Homo sapiens, UniProt P14735)
Construct: recombinant human IDE42-1019 (R&D Systems); purchased R&D Systems
Sequence (P14735 42-1019): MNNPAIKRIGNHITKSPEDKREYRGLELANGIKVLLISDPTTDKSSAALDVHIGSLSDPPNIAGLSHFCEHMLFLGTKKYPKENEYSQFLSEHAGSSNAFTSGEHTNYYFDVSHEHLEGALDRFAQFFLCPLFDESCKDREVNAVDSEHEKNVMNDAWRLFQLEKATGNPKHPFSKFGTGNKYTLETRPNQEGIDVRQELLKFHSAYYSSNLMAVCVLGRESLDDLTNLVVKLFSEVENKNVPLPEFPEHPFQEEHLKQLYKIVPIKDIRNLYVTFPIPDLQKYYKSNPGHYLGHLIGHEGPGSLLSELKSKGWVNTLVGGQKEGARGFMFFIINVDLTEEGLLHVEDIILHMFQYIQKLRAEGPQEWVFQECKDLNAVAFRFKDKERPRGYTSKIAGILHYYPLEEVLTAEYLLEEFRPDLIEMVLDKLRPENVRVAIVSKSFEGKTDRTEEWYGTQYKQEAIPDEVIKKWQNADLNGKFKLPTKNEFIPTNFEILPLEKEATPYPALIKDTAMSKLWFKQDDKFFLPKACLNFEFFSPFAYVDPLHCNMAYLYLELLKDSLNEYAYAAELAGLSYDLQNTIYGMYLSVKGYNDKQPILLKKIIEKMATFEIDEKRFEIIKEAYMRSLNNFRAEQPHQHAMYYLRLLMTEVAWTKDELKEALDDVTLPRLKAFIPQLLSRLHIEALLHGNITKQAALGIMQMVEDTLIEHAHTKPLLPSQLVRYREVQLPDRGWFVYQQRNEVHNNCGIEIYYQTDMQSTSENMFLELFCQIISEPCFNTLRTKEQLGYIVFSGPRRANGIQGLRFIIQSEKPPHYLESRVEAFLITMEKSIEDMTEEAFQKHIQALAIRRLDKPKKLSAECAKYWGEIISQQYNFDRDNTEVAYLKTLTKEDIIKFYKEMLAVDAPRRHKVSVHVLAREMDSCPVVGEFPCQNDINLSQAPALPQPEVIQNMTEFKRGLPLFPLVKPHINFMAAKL
Method: Protease assay with fluorogenic peptide substrate Mca-[…](Dnp)-OH
Assay type: biochemical
Condition Label: fluorogenic peptide Mca-RPPGFSAFK(Dnp)-OH; apparent IC50 for compounds with submaximal inhibition; read-out: IC50 (μM) Proteolysis
Annotation: log10 of IC50, µM basis.

Solved cases below.
Item under review: Cc1cccc(-c2ccc([C@@H]3[C@@H](CO)N4CCCCN(S(=O)(=O)c5ccccc5C)C[C@@H]34)cc2)c1 [BRD-297] . Reported log10(IC50)?
-0.60

Item under review: Cc1cccc(-c2ccc(C3CCN(Cc4ccc(F)c5ccccc45)CC3)cc2)c1C [A35] . Reported log10(IC50)?
1.08

Item under review: Cc1cccc(-c2ccc([C@H]3C4CN(S(=O)(=O)c5ccccc5C)CCCCN4[C@@H]3CN)cc2)c1 (some centres unmarked) [K29] . Reported log10(IC50)?
-0.60

Item under review: Cc1ccccc1-c1ccc(C2C3CN(Cc4ccncc4)CC2N3)cc1 (centres unmarked) [C3] . Reported log10(IC50)?
0.70

Item under review: Cc1cccc(-c2ccc([C@@H]3[C@@H](CO)N4CCCCN(S(=O)(=O)c5cccc(C)c5)C[C@@H]34)cc2)c1 [compound 496] . Reported log10(IC50)?
0.40

Provide each entry's log10(IC50) from the list below.
1. Cc1cc(S(=O)(=O)N2CCCCN3[C@H](CO)[C@@H](c4ccc(-c5cccc(C)c5C)cc4)[C@@H]3C2)n(C)n1 [JP-S25]
2. Cc1ccccc1-c1ccc(C2C3CN(Cc4cocn4)CC2N3)cc1 (centres unmarked) [C9]
3. Cc1ccccc1-c1ccc([C@@H]2[C@@H](CO)N3CCCCN(S(C)(=O)=O)C[C@@H]23)cc1 [compound 591]
4. O=C(C1CCOCC1)N1CC(=O)N2[C@H](CO)[C@H](c3ccc(C#Cc4cccc(F)c4)cc3)[C@H]2C1 [compound 142]

1. -1.70
2. 1.40
3. 0.18
4. 0.78

Provide each entry's log10(IC50) from the list below.
1. CCCNC(=O)N1CC(=O)N2[C@@H](CO)[C@H](c3ccc(-c4cccc(C)c4)cc3)[C@@H]2C1 [compound 231]
2. Cc1ccccc1-c1ccc(C2C3CN(C(=O)c4cnccn4)CC2N3)cc1 (centres unmarked) [C1]
3. Cc1cccc(-c2ccc(C3CCN(S(=O)(=O)CCc4ccncc4)CC3)cc2)c1C [A17]
4. COc1ccccc1-c1ccc([C@@H]2[C@@H](C#N)N(C(=O)CN(C)C)[C@H]2CO)cc1 [D6]
5. Cc1cccc(-c2ccc(N3CCN(C(=O)C4CCCCC4)CC3)cc2)c1C [J9]

0.40
0.30
0.70
0.70
0.40

Provide each entry's log10(IC50) from the list below.
1. Cc1ccccc1S(=O)(=O)N1CCC(O)(c2ccc(-c3cccc(C)c3C)cc2)CC1 [J2]
2. COc1ccc(C(=O)N2CCC(c3ccc(-c4cccc(C)c4C)cc3)CC2)c(OC)c1 [A21]

[0.40, 0.00]

Provide each entry's log10(IC50) from the list below.
1. Cc1cccc(-c2ccc(C3CCN(C(=O)c4ccc5occc5c4)CC3)cc2)c1C [A26]
2. Cc1cccc(-c2ccc([C@H]3C4CN(S(=O)(=O)c5cccnc5C)C/C=C\CN4[C@@H]3CO)cc2)c1C (some centres unmarked) [JP-S21]
3. Cc1cccc(-c2ccc([C@@H]3[C@@H](CO)N4CCCCN(S(=O)(=O)c5ccnn5C)C[C@@H]34)cc2)c1C [JP-S24]
4. Cc1cccc(-c2ccc(C3CCN(C(=O)C4c5ccccc5-c5ccccc54)CC3)cc2)c1C [A27]
5. Cc1ccccc1-c1ccc([C@H]2[C@H](CO)N3C(=O)CN(C(=O)NC4CCCC4)C[C@@H]23)cc1 [compound 504]
6. Cc1cccc(-c2ccc(C3CCN(S(=O)(=O)c4cccnc4)CC3)cc2)c1C [A16]
7. Cc1ccccc1S(=O)(=O)N1CCCCN2[C@H](CO)[C@@H](c3ccc(-c4ccc5c(c4)OCO5)cc3)[C@@H]2C1 [K5]

0.78
-1.70
-2.00
1.08
-0.10
1.08
0.40

---

Assay Target: recombinant human IDE42-1019 (Homo sapiens)
Construct: recombinant human IDE42-1019 (R&D Systems); purchased R&D Systems
Method: Protease assay with fluorogenic peptide substrate Mca-[…](Dnp)-OH
Type: biochemical
Condition Label: fluorogenic peptide Mca-RPPGFSAFK(Dnp)-OH; apparent IC50 for compounds with submaximal inhibition; read-out: IC50 (μM) Proteolysis
Protocol: The proteases IDE42-1019, recombinant human IDE42-1019 (R&D Systems), neprilysin (R&D), and angiotensin-converting enzyme (R&D) were assayed using the fluorophore/quencher-tagged peptide substrate Mca-[…](Dnp)-OH (SEQ ID NO: 24) (R&D) according to the manufacturer's instructions and using the recommended buffers (fluorophore Mca=(7-methoxycourmarin-4-yl)acetyl and quencher Dnp=2,4-dinitrophenyl). For IDE the recommended buffer is 50 mM Tris pH 7.5, 1 M NaCl. […]
Property Name: IC50

Item under review: Cc1cccc(-c2ccc(C3CCN(S(=O)(=O)c4ccccc4Oc4ccccc4)CC3)cc2)c1C [A04] . Reported IC50?
12 µM

Item under review: COc1ccccc1-c1ccc([C@H]2[C@@H](CO)N3CCCCN(C(=O)c4ccncc4)C[C@H]23)cc1 [compound 586] . Reported IC50?
7 µM

Item under review: Cc1cccc(-c2ccc(C3CCN(S(=O)(=O)c4ccc5[nH]c(=O)[nH]c5c4)CC3)cc2)c1C [A15] . Reported IC50?
4 µM

Item under review: CCC(=O)N1[C@H](CO)[C@H](c2ccc(-c3ccccc3OC)cc2)[C@H]1CNC(C)=O [D4] . Reported IC50?
> 20 µM

Item under review: Cc1cccc(-c2ccc([C@@H]3[C@@H](CO)N4CCCCN(Cc5cncnc5)C[C@@H]34)cc2)c1 [compound 654] . Reported IC50?
> 100 µM

Provide each entry's IC50 from the list below.
1. Cc1cccc(-c2ccc([C@@H]3[C@@H](CO)N4CCCCN(S(=O)(=O)c5nccn5C)C[C@@H]34)cc2)c1C [JP-S23]
2. Cc1cccc(-c2ccc(C3CCN(S(=O)(=O)c4cccc5c(N(C)C)cccc45)CC3)cc2)c1C [A11]
3. Cc1ccc(C)c(-c2ccc([C@@H]3[C@@H](CO)N4CCCCN(S(=O)(=O)c5ccccc5C)C[C@@H]34)cc2)c1 [K13]

1. 0.0006 µM
2. 10 µM
3. 0.09 µM

---

Provide the reported Emax of each item.
Assay Target: recombinant human IDE42-1019 (Homo sapiens, UniProt P14735)
Construct: recombinant human IDE42-1019 (R&D Systems); purchased R&D Systems
Sequence (P14735 42-1019): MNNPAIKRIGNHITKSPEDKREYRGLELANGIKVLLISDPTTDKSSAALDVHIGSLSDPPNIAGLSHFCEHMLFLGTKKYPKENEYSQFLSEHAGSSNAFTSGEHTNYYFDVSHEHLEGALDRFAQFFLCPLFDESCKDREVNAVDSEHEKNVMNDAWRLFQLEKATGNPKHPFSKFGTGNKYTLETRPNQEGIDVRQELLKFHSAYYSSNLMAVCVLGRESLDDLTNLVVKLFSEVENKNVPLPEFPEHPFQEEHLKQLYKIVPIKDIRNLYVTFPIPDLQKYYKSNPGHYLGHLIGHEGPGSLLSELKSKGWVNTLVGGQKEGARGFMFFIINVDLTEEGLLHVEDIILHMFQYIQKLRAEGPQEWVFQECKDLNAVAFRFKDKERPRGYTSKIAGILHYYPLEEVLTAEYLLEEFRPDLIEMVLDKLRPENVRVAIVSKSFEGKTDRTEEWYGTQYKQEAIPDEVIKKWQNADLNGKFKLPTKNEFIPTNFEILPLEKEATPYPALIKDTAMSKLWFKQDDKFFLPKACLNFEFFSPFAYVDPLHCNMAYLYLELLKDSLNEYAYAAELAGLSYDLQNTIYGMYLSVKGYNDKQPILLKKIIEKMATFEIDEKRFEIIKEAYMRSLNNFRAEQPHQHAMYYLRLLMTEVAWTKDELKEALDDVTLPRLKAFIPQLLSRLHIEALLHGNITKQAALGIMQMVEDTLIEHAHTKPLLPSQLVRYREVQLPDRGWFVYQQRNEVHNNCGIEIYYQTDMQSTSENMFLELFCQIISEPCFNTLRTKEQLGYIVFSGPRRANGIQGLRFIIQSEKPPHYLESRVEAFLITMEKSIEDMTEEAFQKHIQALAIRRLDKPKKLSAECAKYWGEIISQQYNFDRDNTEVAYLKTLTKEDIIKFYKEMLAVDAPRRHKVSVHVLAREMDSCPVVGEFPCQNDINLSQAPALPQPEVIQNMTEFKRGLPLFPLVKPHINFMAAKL
Method: Protease assay with fluorogenic peptide substrate Mca-[…](Dnp)-OH
Assay type: biochemical
Condition Label: fluorogenic peptide Mca-RPPGFSAFK(Dnp)-OH; plateau at high inhibitor concentration; read-out: Imax (%) Proteolysis (inhibition maximum)
Answers are plain numbers, in %.

Solved cases below.
Kindly state the measured Emax obtained for Cc1ccccc1-c1ccc([C@@H]2[C@H]3CN(S(=O)(=O)c4cn(C)cn4)CCCCN3[C@H]2CO)cc1 with recombinant human IDE42-1019 (Homo sapiens, UniProt P14735).
40

Kindly state the measured Emax obtained for Cc1ccccc1-c1ccc([C@H]2[C@H](CO)N3C(=O)CN(C(=O)c4ccc(F)cc4)C[C@@H]23)cc1 with recombinant human IDE42-1019 (Homo sapiens, UniProt P14735).
70

Kindly state the measured Emax obtained for COc1ccccc1-c1ccc([C@H]2[C@@H](CO)N[C@@H]2CNC(=O)C2CCCC2)cc1 with recombinant human IDE42-1019 (Homo sapiens, UniProt P14735).
60

Provide each entry's Emax from the list below.
1. O=C(c1ccncc1)N1CC2NC(C1)C2c1ccc(/C=C/c2ccccc2)cc1 (stereo not drawn)
2. COc1cccc(-c2ccc([C@H]3C4CN(S(=O)(=O)c5ccccc5C)CCCCN4[C@@H]3CO)cc2)c1 (stereo partly drawn)

1: 100; 2: 65

Provide each entry's Emax from the list below.
1. COc1ccccc1-c1ccc([C@@H]2[C@@H](C#N)N(C(=O)NC3CCCCC3)[C@@H]2CO)cc1
2. COc1ccccc1-c1ccc(C2C3CN(C(=O)c4cccnc4)CC2N3)cc1 (stereo not drawn)
3. OC[C@H]1[C@@H](c2ccc(C#Cc3ccccc3F)cc2)[C@@H]2CN(Cc3cncnc3)CCCCN12
4. O=C(NC1CCCC1)N1CCCCN2[C@@H](CO)[C@H](c3ccc(/C=C/c4ccccc4)cc3)[C@@H]2C1
5. Cc1ccccc1-c1ccc([C@H]2[C@H](CO)N3C(=O)CN(C(=O)Nc4cccc(F)c4)C[C@@H]23)cc1
6. Cc1ccccc1-c1ccc([C@H]2[C@@H](CO)N3CCCCN(C(=O)c4cccnc4)C[C@H]23)cc1
7. Cc1ccccc1-c1ccc([C@H]2[C@H](CO)N3C(=O)CN(C(=O)c4ccncc4)C[C@@H]23)cc1
8. COc1ccccc1-c1ccc([C@H]2[C@@H](CO)N3CCCCN(C(=O)c4cccnc4)C[C@H]23)cc1

40
70
80
80
70
80
70
90

Kindly state the measured Emax obtained for Cc1ccccc1S(=O)(=O)N1CCCCN2[C@H](CO)[C@@H](c3ccc(-c4ccccc4)cc3)[C@@H]2C1 with recombinant human IDE42-1019 (Homo sapiens, UniProt P14735).
65
